Experiment: Hydrolysis
Conditions: human, pooled human liver s9 fractions (HLS9), pH 7.4
Counter-ions that a name gives are not always drawn.
reported property: Km (µM)

a: CCOC(=O)[C@H](CCc1ccccc1)N[C@@H](C)C(=O)N1Cc2cc(OC)c(OC)cc2C[C@H]1C(=O)O [Moexipril, moexipril hydrochloride]
b: CCOC(=O)[C@H](CCc1ccccc1)N[C@@H](C)C(=O)N1CCC[C@H]1C(=O)O [Enalapril, Enalapril maleate]
Endpoint returns the identifier whose Km is numerically larger, either a or b . When you have decided, please share the label of that item. a
(a: 1460 µM, b: 60.1 µM)

P: CCC[C@H](N[C@@H](C)C(=O)N1[C@H](C(=O)O)C[C@@H]2CCCC[C@@H]21)C(=O)OCC
Q: CCC(=O)O[C@@H](O[P@](=O)(CCCCc1ccccc1)CC(=O)N1C[C@H](C2CCCCC2)C[C@H]1C(=O)O)C(C)C [Fosinopril, Fosinopril sodium salt]
# return whichever of P and Q has the smaller Km When you have decided, please share the label of that item. Q
(Q: 471 µM, P: 1770 µM)

* * *

Overview of recorded Vmax for various compounds
Assay: Hydrolysis
Conditions: HLS9, PBS pH 7.4, 37 °C; unit for ACEIs other than enalapril
Structures can show the parent of a compound that is named as a salt.
Kindly answer with a numeric value in nmole/min/mg protein, unit omitted.

compound	Vmax [nmole/min/mg protein]
CCOC(=O)[C@H](CCc1ccccc1)N[C@@H](C)C(=O)N1Cc2cc(OC)c(OC)cc2C[C@H]1C(=O)O [Moexipril, moexipril hydrochloride]	4.4

Record CCC[C@H](N[C@@H](C)C(=O)N1[C@H](C(=O)O)C[C@@H]2CCCC[C@@H]21)C(=O)OCC , field Vmax: 18.1

Record CCC(=O)O[C@@H](O[P@](=O)(CCCCc1ccccc1)CC(=O)N1C[C@H](C2CCCCC2)C[C@H]1C(=O)O)C(C)C [Fosinopril, Fosinopril sodium salt] , field Vmax: 1.4

Record CCOC(=O)[C@H](CCc1ccccc1)N[C@@H](C)C(=O)N1[C@H](C(=O)O)C[C@@H]2CCC[C@@H]21 , field Vmax: 18.1
